test: NCI Yeast Anticancer Drug Screen. Data for the sgs1 mgt1 strain (AID 161);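 further: 0% = growth of cultures given vehicle only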; conditions: S. cerevisiae sgs1 mgt1 strain, at 50.0 µM
The panel holds about 79,000 compounds, 15% with a hit somewhere; the sample as a whole holds those more often. The source made the active and inactive calls. No stated cut-off is given here; in the data, active means growth inhibition above about 70%; inactive means the rest.
Outcome codes: active, inactive

[
  {
    "compound": "S=C(N=Nc1ccccc1)NNc1ccccc1.[Ni]",
    "category label": "inactive"
  },
  {
    "compound": "CN(C)C1OCCO1",
    "category label": "inactive"
  },
  {
    "compound": "COc1cc(O)c([N+](=O)[O-])cc1[N+](=O)[O-]",
    "category label": "inactive"
  },
  {
    "compound": "OC1C2CCC1C(N1CCOCC1)CC2 (configuration not stated)",
    "category label": "inactive"
  },
  {
    "compound": "Cc1c[nH]c2c1C13CC1CN(C(=O)c1cc4cc(NC(=O)c5cc6ccccc6o5)ccc4[nH]1)C3=CC2=O (configuration not stated)",
    "category label": "active"
  },
  {
    "compound": "C/C=C1/CN2CCC1CC2C(O)c1ccnc2ccc(OCCO)cc12 (configuration not stated)",
    "category label": "inactive"
  },
  {
    "compound": "[Cl][Pt][Cl].c1ccc([PH+](c2ccccc2)c2ccccc2)cc1.c1ccc([PH+](c2ccccc2)c2ccccc2)cc1",
    "category label": "inactive"
  },
  {
    "compound": "O=C(O)c1ccccc1Cl",
    "category label": "inactive"
  },
  {
    "compound": "CCOP(C)(=O)C(N)Cc1ccc(OC)c(OC)c1 (configuration not stated)",
    "category label": "inactive"
  },
  {
    "compound": "Cc1ccc(P(=O)(O)O)cc1",
    "category label": "inactive"
  },
  {
    "compound": "O=C1NC(=S)N/C1=C/c1ccccc1O",
    "category label": "inactive"
  },
  {
    "compound": "C[n+]1ccc(/C=C\\c2ccc(N(CCCl)CCCl)cc2)c2ccccc21",
    "category label": "inactive"
  }
]

====

test: NCI Yeast Anticancer Drug Screen. Data for the rad50 strain (AID 155);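 further: 0% = growth of vehicle-only cultures of the same strain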; settings: S. cerevisiae rad50 strain growth inhibition; at 50.0 µM; active compounds read high
The panel holds about 79,000 compounds, 15% with a hit somewhere; the sample as a whole holds those more often. Activity calls are given as the source filed them. No stated cut-off is given here; in the data, active means growth inhibition above about 70%; inactive means the rest.
test readout: growth inhibition

[
  {
    "compound": "NC1CC=C(COC(=O)C(O)(c2ccccc2)C2CC2)CC1 (stereo unspecified)",
    "test readout": "growth inhibition",
    "observed": "-12.9% (inactive)"
  },
  {
    "compound": "Oc1ccccc1/C=N/Sc1ccccc1.Oc1ccccc1/C=N/Sc1ccccc1.[Ni+2]",
    "test readout": "growth inhibition",
    "observed": "3.2% (inactive)"
  },
  {
    "compound": "O=CNc1ccccc1",
    "test readout": "growth inhibition",
    "observed": "18.6% (inactive)"
  },
  {
    "compound": "COc1cc(/C=C2\\C(O)C3CCN2CC3)cc(OC)c1OC (stereo unspecified)",
    "test readout": "growth inhibition",
    "observed": "-9.25% (inactive)"
  },
  {
    "compound": "CC(=O)c1ccc(Br)cc1",
    "test readout": "growth inhibition",
    "observed": "2% (inactive)"
  },
  {
    "compound": "Cc1cc(S(=O)(=O)F)ccc1NC(=O)NCc1ccc([N+](=O)[O-])cc1",
    "test readout": "growth inhibition",
    "observed": "2.75% (inactive)"
  },
  {
    "compound": "C[N+]1(C)CCCC1c1cccnc1 (stereo unspecified)",
    "test readout": "growth inhibition",
    "observed": "42.8% (inactive)"
  },
  {
    "compound": "O=[N+]([O-])c1ccc2sc3ccccc3c2c1",
    "test readout": "growth inhibition",
    "observed": "63.1% (inactive)"
  },
  {
    "compound": "CCC[CH2][Sn]([CH2]CCC)([CH2]CCC)[CH2]CCNCCCN(C)C",
    "test readout": "growth inhibition",
    "observed": "99.3% (active)"
  },
  {
    "compound": "CC1CC(O)C(=O)C(O[C@@H]2C[C@@H]3CC[C@@H]4[C@H](CC[C@]5(C)C(C6=CC(=O)OC6)CC[C@]45O)[C@@]3(C=O)C[C@H]2O)O1 (stereo partly specified)",
    "test readout": "growth inhibition",
    "observed": "7.95% (inactive)"
  },
  {
    "compound": "COc1ccc(CCN)c(OC)c1",
    "test readout": "growth inhibition",
    "observed": "-11.2% (inactive)"
  },
  {
    "compound": "Cc1ccc(C)c(OP(=O)(Oc2cc(C)ccc2C)Oc2cc(C)ccc2C)c1",
    "test readout": "growth inhibition",
    "observed": "-29.8% (inactive)"
  },
  {
    "compound": "CN1CC[CH2][Sn]([Cl])([Cl])[CH2]CC1",
    "test readout": "growth inhibition",
    "observed": "-1.25% (inactive)"
  },
  {
    "compound": "CCOP(=O)(O)C1CCCC(C)[N-]1.CCOP(=O)(O)C1CCCC(C)[N-]1.CCOP(=O)(O)C1CCCC(C)[N-]1.[Ti+3] (stereo unspecified)",
    "test readout": "growth inhibition",
    "observed": "1.7% (inactive)"
  },
  {
    "compound": "Cc1nnc(NC2=NCCO2)s1",
    "test readout": "growth inhibition",
    "observed": "-4.2% (inactive)"
  },
  {
    "compound": "CCCCCCCNC(c1ccccc1)C(O)c1ccccc1 (stereo unspecified)",
    "test readout": "growth inhibition",
    "observed": "8.4% (inactive)"
  },
  {
    "compound": "COc1ccc2c(c1OC(C)=O)-c1cc(OC(C)=O)cc3c1C(C2)N(C(=O)CN(CCCl)CCCl)CC3 (stereo unspecified)",
    "test readout": "growth inhibition",
    "observed": "-6.4% (inactive)"
  },
  {
    "compound": "CCCCCCNP(=O)(OCC)OCC",
    "test readout": "growth inhibition",
    "observed": "-6% (inactive)"
  },
  {
    "compound": "CCCCOC(=O)c1ccccc1C(=O)O.[Mn]",
    "test readout": "growth inhibition",
    "observed": "-38.7% (inactive)"
  },
  {
    "compound": "O=C(O)CCCc1ccc(N(CCCl)OCCCl)cc1",
    "test readout": "growth inhibition",
    "observed": "-21.1% (inactive)"
  },
  {
    "compound": "C[As](C)(=S)[As](C)(C)=S",
    "test readout": "growth inhibition",
    "observed": "77.3% (active)"
  },
  {
    "compound": "ClCc1cccnc1",
    "test readout": "growth inhibition",
    "observed": "16.9% (inactive)"
  },
  {
    "compound": "O=[N+]([O-])c1ccc2c(c1)[O][Sn]([I])([I])[O]2",
    "test readout": "growth inhibition",
    "observed": "-6% (inactive)"
  },
  {
    "compound": "Cc1ccc2cc3c(ccc4ccccc43)c3c2c1CC3",
    "test readout": "growth inhibition",
    "observed": "-9.05% (inactive)"
  },
  {
    "compound": "O=NN1CCCCCCC1C(=O)O (stereo unspecified)",
    "test readout": "growth inhibition",
    "observed": "1.3% (inactive)"
  },
  {
    "compound": "CCC1(CC)C(=O)NC(=NCCCC(N)C(=O)O)NC1=O (stereo unspecified)",
    "test readout": "growth inhibition",
    "observed": "8.75% (inactive)"
  },
  {
    "compound": "CC12CCC3C(CC(N4CC4)C4(O)CC(O)CCC34C)C1CCC2=O (stereo unspecified)",
    "test readout": "growth inhibition",
    "observed": "15.6% (inactive)"
  },
  {
    "compound": "Oc1ccc(Nc2ncnc3nc[nH]c23)cc1CN(CCCl)CCCl",
    "test readout": "growth inhibition",
    "observed": "-5.85% (inactive)"
  },
  {
    "compound": "CC1CN1P(=O)(N1CCc2ccccc21)N1CC1C (stereo unspecified)",
    "test readout": "growth inhibition",
    "observed": "-21.8% (inactive)"
  },
  {
    "compound": "Cc1nc2ccccc2c(=O)n1-c1ccccc1F",
    "test readout": "growth inhibition",
    "observed": "-10.6% (inactive)"
  },
  {
    "compound": "O=c1ccc(=O)[nH][nH]1.[Zn+2]",
    "test readout": "growth inhibition",
    "observed": "-18.2% (inactive)"
  },
  {
    "compound": "COP(=O)(Cc1ccc(/C=C/C#N)o1)OC",
    "test readout": "growth inhibition",
    "observed": "-12.2% (inactive)"
  },
  {
    "compound": "CCOP(=O)(OCC)N1C(C)C1C (stereo unspecified)",
    "test readout": "growth inhibition",
    "observed": "-0.05% (inactive)"
  },
  {
    "compound": "CC1OC(OC2CCC3(C=O)C4CCC5(C)C(C6=CC(=O)OC6)CCC5(O)C4CCC3(O)C2)C(O)C(O)C1O (stereo unspecified)",
    "test readout": "growth inhibition",
    "observed": "14.3% (inactive)"
  },
  {
    "compound": "ClCc1nc(-c2ccco2)no1",
    "test readout": "growth inhibition",
    "observed": "6.1% (inactive)"
  },
  {
    "compound": "CC(N)Cc1c[nH]c2ccccc12 (stereo unspecified)",
    "test readout": "growth inhibition",
    "observed": "2.9% (inactive)"
  },
  {
    "compound": "O=[As]c1ccc(C(=O)Cl)cc1 (stereo unspecified)",
    "test readout": "growth inhibition",
    "observed": "-2.3% (inactive)"
  },
  {
    "compound": "Nc1nc(N)c(N)c(N)n1",
    "test readout": "growth inhibition",
    "observed": "3.05% (inactive)"
  },
  {
    "compound": "CC(CN1NC12CCCC2)N1NC12CCCC2 (stereo unspecified)",
    "test readout": "growth inhibition",
    "observed": "0.95% (inactive)"
  },
  {
    "compound": "Nc1ccc(C(=O)N/N=C/c2ccc(N(CCBr)CCBr)cc2)cc1",
    "test readout": "growth inhibition",
    "observed": "42.9% (inactive)"
  },
  {
    "compound": "CN(C)P(=O)(N(C)C)N(C)C.[CH3][Sn]([CH3])([Cl])[Cl]",
    "test readout": "growth inhibition",
    "observed": "5.75% (inactive)"
  },
  {
    "compound": "CC(Br)C(N)=O (stereo unspecified)",
    "test readout": "growth inhibition",
    "observed": "-14.4% (inactive)"
  },
  {
    "compound": "[Se]=[Hf]=[Se]",
    "test readout": "growth inhibition",
    "observed": "1.35% (inactive)"
  },
  {
    "compound": "O=c1oc2cc(O)ccc2c(O)c1C(c1ccc2ccccc2c1)c1c(O)c2ccc(O)cc2oc1=O",
    "test readout": "growth inhibition",
    "observed": "8.65% (inactive)"
  },
  {
    "compound": "NC1(C(=O)O)CCCC1",
    "test readout": "growth inhibition",
    "observed": "-21.1% (inactive)"
  },
  {
    "compound": "OCCN1CCN(c2cccc(Cl)c2)CC1",
    "test readout": "growth inhibition",
    "observed": "-7.5% (inactive)"
  },
  {
    "compound": "Nc1cc(N=Nc2ccc([As](=O)(O)O)cc2)ccc1O",
    "test readout": "growth inhibition",
    "observed": "7.95% (inactive)"
  },
  {
    "compound": "N#CCc1ccc(O)cc1",
    "test readout": "growth inhibition",
    "observed": "1.25% (inactive)"
  },
  {
    "compound": "C[N+](C)(Cc1ccc([N+](=O)[O-])cc1)c1ccc(N(CCCl)CCCl)cc1",
    "test readout": "growth inhibition",
    "observed": "-4% (inactive)"
  },
  {
    "compound": "CC(=O)O[C@H]1CC[C@@]2(C)[C@H](CC[C@@H]3[C@@H]2CC[C@]2(C)[C@@H](c4ccc(=O)oc4)C[C@H]4O[C@]342)C1",
    "test readout": "growth inhibition",
    "observed": "53% (inactive)"
  },
  {
    "compound": "CCOC(=O)COc1cc(Cl)c(S(=O)(=O)F)cc1Cl",
    "test readout": "growth inhibition",
    "observed": "98.8% (active)"
  }
]
